Test name: Intrinsic clearance in Wistar-Han rat hepatocytes
Assay type: ADME, cell-based, Hepatocyte
Experimental parameters: read-out: CLH
Test readout: CLint scaled (mL/min/kg)
The reply should contain only the number, in mL/min/kg.

GET /values?readout=CLint scaled&item= `COc1cc(-c2ccc([C@@H]3CCc4ccc([C@H](C5CC5)[C@H](C)C(=O)[O-])cc4O3)c(F)c2)ccn1.[Na+]`
241

====

Test name: Effective half life in Beagle dog at 1 mg/kg, iv or 2 mg/kg, po administered as single dose
Format: ADME, organism-based, Canis lupus familiaris
Experimental parameters: in vivo, read-out: t1/2eff (converted)
Test readout: half-life (h)
# number only, unit h dropped from output

Can you share its half-life? I mean this molecule: `COc1cc(-c2ccc([C@@H]3CCc4ccc([C@H](C5CC5)[C@H](C)C(=O)[O-])cc4O3)c(F)c2)ccn1.[Na+]`
6.9

FYI, the data here is from ChEMBL document CHEMBL4145665.
